The reported numbers originate from patent US5747301A.

Listing: activity at 100000 µM of selected compounds
Biological target: D-sorbitol dehydrogenase (SLDH) (Gluconobacter thailandicus, UniProt Q8KIL1)
Test: Substrate specificity of the purified D-sorbitol dehydrogenase (DCIP reduction enzyme assay)
Assay type: biochemical, Gluconobacter suboxydans IFO 3255
Set-up: The SLDH was isolated from the membrane fraction of Gluconobacter suboxydans IFO 3255 (DSM 9715); made in house; host or cells: Gluconobacter suboxydans IFO 3255 (DSM 9715), native source (not recombinant): purified from the solubilized membrane fraction
Details: read-out: Relative activity

COMPOUND | EXPERIMENTAL SYSTEM | activity at 100000 µM [%]
OC[C@@H](O)[C@@H](O)[C@H](O)[C@@H](O)CO | D-sorbitol dehydrogenase (SLDH) (Gluconobacter thailandicus, UniProt Q8KIL1) | 100
CCO | D-sorbitol dehydrogenase (SLDH) (Gluconobacter thailandicus, UniProt Q8KIL1) | 0
CO | D-sorbitol dehydrogenase (SLDH) (Gluconobacter thailandicus, UniProt Q8KIL1) | 0
OC[C@H]1OC(O)[C@H](O)[C@@H](O)[C@@H]1O (some centres unmarked) | D-sorbitol dehydrogenase (SLDH) (Gluconobacter thailandicus, UniProt Q8KIL1) | 0
OC[C@@H](O)[C@@H](O)[C@H](O)[C@H](O)CO | D-sorbitol dehydrogenase (SLDH) (Gluconobacter thailandicus, UniProt Q8KIL1) | 49.9

----------
Attribute: activity at 1890 µM
Biological target: D-sorbitol dehydrogenase (SLDH) (Gluconobacter thailandicus, UniProt Q8KIL1)
Sequence (Q8KIL1 30-740): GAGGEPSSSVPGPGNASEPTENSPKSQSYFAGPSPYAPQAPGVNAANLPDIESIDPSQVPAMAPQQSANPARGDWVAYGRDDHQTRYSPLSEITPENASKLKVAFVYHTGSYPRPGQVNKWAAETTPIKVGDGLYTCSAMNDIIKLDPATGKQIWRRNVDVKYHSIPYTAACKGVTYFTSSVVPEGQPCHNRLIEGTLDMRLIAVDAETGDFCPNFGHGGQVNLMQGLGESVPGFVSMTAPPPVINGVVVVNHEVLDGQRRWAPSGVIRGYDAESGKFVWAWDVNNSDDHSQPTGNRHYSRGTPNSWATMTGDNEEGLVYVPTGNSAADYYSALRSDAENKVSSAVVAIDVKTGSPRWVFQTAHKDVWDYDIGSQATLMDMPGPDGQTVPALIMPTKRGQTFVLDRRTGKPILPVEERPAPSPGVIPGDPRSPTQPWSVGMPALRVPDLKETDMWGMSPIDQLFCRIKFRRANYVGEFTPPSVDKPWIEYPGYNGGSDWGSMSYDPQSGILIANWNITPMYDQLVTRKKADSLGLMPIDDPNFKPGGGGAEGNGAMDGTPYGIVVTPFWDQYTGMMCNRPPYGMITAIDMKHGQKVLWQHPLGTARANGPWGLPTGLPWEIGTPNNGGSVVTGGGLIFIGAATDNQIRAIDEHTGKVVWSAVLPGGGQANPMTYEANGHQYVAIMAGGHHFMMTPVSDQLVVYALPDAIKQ
Test: Effects of metal ions and inhibitors on the SLDH activity
Assay type: biochemical, Gluconobacter suboxydans IFO 3255
Parameters: The SLDH was isolated from the membrane fraction of Gluconobacter suboxydans IFO 3255 (DSM 9715); made in house; host or cells: Gluconobacter suboxydans IFO 3255 (DSM 9715), native source (not recombinant): purified from the solubilized membrane fraction
Conditions: read-out: Relative activity (%)

COMPOUND | activity at 1890 µM
O=C(O)CN(CCN(CC(=O)O)CC(=O)O)CC(=O)O | 100%
CCN1C(=O)C=CC1=O [N-Ethylmaleimide] | 100%
O=C(O)CF [Sodium fluoroacetate] | 108%
O=C(O)CI [Monoiodoacetate] | 25%
